molecular target: Adrenergic receptor alpha-1 (Homo sapiens, UniProt P35348+P25100+P35368); assay: In vitro blocking activity against alpha adrenergic receptor, isolated from rabbit aortic strip; type: protein assay, Oryctolagus cuniculus
METRIC: pA2

- COMPOUND: "COC(=O)c1cc(C(O)CN2CCC(n3c(O)nc4ccccc43)CC2)ccc1O.Cl (stereo not given)"
  pA2: 6.94
- COMPOUND: "COC(=O)c1cc(C(O)CN2CCN(c3ccccc3C)CC2)ccc1O.Cl (stereo not given)"
  pA2: 7.45
- COMPOUND: "CNC(=O)c1cc(C(O)CN2CCN(c3ccc(OC)cc3)CC2)ccc1O.Cl (stereo not given)"
  pA2: 5.47
- COMPOUND: "CC(CCc1ccc2c(c1)OCO2)NCC(O)c1ccc(O)c(C(=O)O)c1.Cl (stereo not given)"
  pA2: 5.2
- COMPOUND: "CNC(=O)c1cc(C(O)CN2CCN(c3ccccc3OC)CC2)ccc1O.Cl (stereo not given)"
  pA2: 7.95
- COMPOUND: "COc1ccc(C(O)CN2CCN(c3ccccc3OC)CC2)cc1C(N)=O.Cl (stereo not given)"
  pA2: 6.8
- COMPOUND: "NC(=O)c1cc(C(O)CNCC2COc3ccccc3O2)ccc1O (stereo not given)"
  pA2: 6.2
- COMPOUND: "CCNC(=O)c1cc(C(O)CN2CCC(n3c(O)nc4ccccc43)CC2)ccc1O.Cl (stereo not given)"
  pA2: 6.63
- COMPOUND: "CC(C)NC(=O)c1cc(C(O)CNC(C)CCc2ccc3c(c2)OCO3)ccc1O.Cl (stereo not given)"
  pA2: 5.85

The values you see were collected from ChEMBL document CHEMBL1121801.
